System: MATIN
Assay: Post-emergence herbicidal action against MATIN
Assay type: in vivo, Matricaria inodora
Conditions: dosage 20 g/ha
Method: Seeds of monocotyledonous and dicotyledonous weed and crop plants are laid out in sandy loam soil in wood-fiber pots, covered with soil and cultivated in a greenhouse under good growth conditions. 2 to 3 weeks after sowing, the test plants are treated at the one-leaf stage. […]
property-measured: Post-emergence action against MATIN in % (%)

compound=CCn1nnnc1NC(=O)c1ccc(Br)c(C(=O)NCC(F)(F)F)c1Cl unit_abbrev=% result=90
compound=CCNC(=O)c1c(C(F)F)ccc(C(=O)Nc2nnnn2CC)c1C1CC1 unit_abbrev=% result=90
compound=CCn1nnnc1NC(=O)c1ccc(C(F)(F)F)c(C(=O)NCC2CC2)c1SC unit_abbrev=% result=80
compound="CC(NC(=O)c1c(C(F)(F)F)ccc(C(=O)Nc2nnnn2C)c1Cl)C1CC1 (stereo not shown)" unit_abbrev=% result=90
compound=CCn1nnnc1NC(=O)c1ccc(C(F)F)c(C(=O)NC2CC2)c1OC unit_abbrev=% result=80
compound=CSc1c(C(=O)Nc2nnnn2C)ccc(C(F)(F)F)c1C(=O)NCC(F)F unit_abbrev=% result=80
compound=CCn1nnnc1NC(=O)c1ccc(C(F)F)c(C(=O)NCC2CC2)c1SC unit_abbrev=% result=90
